- Test system: Herpes simplex virus-2 (G)
- settings: read-out: Minimum inhibitory concentration Herpes simplex virus-2 (G); HEL; reduces virus-induced cytopathogenicity by 50%
pEC50: −log10 of the molar value. Residues, ends and D or L forms follow the SMILES beside them.
Reported pEC50 by item:

[
  {
    "compound": "NCC(N)=O [G-NH2, glycinamide]",
    "pEC50": "< 2.70"
  },
  {
    "compound": "NCC(=O)N1CCC[C@H]1C(=O)NCC(N)=O [GPG-NH2, glycylprolylglycinamide] (H-Gly-Pro-Gly-NH2)",
    "pEC50": "< 3.40"
  }
]

----------
- Test system: MT-4 cells
- assay_comment: Cytotoxicity (CC50) in MT-4 cells
- Format: cell-based

[
  {
    "molecule": "NCC(N)=O [G-NH2, glycinamide]",
    "CC50": "> 2000 µM"
  }
]
